# study.target: Histone deacetylase 3 (Homo sapiens, UniProt O15379)
# Sequence (O15379 whole entry): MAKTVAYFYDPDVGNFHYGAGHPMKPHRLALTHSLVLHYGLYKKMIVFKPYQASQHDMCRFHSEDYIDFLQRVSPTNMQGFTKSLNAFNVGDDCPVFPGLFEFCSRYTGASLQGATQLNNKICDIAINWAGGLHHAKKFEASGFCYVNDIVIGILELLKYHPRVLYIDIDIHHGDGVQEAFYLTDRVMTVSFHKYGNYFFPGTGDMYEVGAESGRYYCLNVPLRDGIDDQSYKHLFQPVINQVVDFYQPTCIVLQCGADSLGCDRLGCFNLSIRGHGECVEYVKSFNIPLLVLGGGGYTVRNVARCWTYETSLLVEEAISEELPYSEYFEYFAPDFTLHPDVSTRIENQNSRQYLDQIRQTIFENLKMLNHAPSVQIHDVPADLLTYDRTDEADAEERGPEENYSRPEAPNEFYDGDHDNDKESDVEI
# experimental.protocol: Inhibition of HDAC3 (unknown origin) preincubated for 30 mins
metric.name: pIC50
pIC50 is defined as minus the log10 of a concentration measured in mol/L.

CCCNNC(=O)CCCCCCC(=O)Nc1ccccc1: 7.52

Now examine the next entry.
Inquiry: Query the reported pIC50 for Histone deacetylase 3 (Homo sapiens, UniProt O15379); item: Nc1ccccc1NC(=O)CCCCCCC(=O)Nc1ccccc1
Reply text: 6.25

----------
# study.target: Histone deacetylase 11 (Homo sapiens, UniProt Q96DB2)
# Sequence (Q96DB2 whole entry): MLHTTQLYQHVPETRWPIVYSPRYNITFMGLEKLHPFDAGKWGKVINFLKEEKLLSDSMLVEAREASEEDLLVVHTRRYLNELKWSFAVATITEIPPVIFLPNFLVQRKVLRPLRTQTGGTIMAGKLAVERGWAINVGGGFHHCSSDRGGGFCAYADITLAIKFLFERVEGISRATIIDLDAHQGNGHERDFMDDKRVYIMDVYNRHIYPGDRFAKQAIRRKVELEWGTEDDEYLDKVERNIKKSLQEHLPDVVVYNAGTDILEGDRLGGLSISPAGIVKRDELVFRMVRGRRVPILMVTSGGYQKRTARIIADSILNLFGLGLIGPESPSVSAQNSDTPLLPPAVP
metric.name: IC50

Inquiry: Returns the measured IC50 for the input compound. Input: Nc1ccccc1NC(=O)CCCCCCC(=O)Nc1ccccc1
Reply text: > 10 µM

----------
# study.target: Polyamine deacetylase HDAC10 (Homo sapiens, UniProt Q969S8)
# Sequence (Q969S8 whole entry): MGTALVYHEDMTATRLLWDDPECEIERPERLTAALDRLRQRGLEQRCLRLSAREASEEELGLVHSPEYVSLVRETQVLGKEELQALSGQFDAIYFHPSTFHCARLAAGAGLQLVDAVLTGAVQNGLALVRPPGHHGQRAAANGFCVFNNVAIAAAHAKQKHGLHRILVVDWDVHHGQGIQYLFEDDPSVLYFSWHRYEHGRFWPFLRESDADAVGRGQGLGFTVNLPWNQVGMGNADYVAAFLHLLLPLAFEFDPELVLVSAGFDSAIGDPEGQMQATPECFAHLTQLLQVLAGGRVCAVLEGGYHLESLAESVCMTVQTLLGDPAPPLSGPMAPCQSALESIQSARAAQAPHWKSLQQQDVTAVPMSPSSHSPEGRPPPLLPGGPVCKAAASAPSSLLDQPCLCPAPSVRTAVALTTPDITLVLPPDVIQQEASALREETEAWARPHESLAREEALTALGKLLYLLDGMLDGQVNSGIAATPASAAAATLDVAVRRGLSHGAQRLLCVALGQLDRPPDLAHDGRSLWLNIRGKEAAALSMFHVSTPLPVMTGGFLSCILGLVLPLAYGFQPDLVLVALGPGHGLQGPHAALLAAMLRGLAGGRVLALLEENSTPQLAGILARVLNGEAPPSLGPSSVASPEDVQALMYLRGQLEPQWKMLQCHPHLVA
pIC50: −log10 of the molar value.
metric.name: pIC50

Inquiry: Query: pIC50; subject: Nc1ccccc1NC(=O)CCCCCCC(=O)Nc1ccccc1
Reply text: < 5.00

----------
# study.target: Protein deacetylase HDAC6 (Homo sapiens, UniProt Q9UBN7)
# Sequence (Q9UBN7 whole entry): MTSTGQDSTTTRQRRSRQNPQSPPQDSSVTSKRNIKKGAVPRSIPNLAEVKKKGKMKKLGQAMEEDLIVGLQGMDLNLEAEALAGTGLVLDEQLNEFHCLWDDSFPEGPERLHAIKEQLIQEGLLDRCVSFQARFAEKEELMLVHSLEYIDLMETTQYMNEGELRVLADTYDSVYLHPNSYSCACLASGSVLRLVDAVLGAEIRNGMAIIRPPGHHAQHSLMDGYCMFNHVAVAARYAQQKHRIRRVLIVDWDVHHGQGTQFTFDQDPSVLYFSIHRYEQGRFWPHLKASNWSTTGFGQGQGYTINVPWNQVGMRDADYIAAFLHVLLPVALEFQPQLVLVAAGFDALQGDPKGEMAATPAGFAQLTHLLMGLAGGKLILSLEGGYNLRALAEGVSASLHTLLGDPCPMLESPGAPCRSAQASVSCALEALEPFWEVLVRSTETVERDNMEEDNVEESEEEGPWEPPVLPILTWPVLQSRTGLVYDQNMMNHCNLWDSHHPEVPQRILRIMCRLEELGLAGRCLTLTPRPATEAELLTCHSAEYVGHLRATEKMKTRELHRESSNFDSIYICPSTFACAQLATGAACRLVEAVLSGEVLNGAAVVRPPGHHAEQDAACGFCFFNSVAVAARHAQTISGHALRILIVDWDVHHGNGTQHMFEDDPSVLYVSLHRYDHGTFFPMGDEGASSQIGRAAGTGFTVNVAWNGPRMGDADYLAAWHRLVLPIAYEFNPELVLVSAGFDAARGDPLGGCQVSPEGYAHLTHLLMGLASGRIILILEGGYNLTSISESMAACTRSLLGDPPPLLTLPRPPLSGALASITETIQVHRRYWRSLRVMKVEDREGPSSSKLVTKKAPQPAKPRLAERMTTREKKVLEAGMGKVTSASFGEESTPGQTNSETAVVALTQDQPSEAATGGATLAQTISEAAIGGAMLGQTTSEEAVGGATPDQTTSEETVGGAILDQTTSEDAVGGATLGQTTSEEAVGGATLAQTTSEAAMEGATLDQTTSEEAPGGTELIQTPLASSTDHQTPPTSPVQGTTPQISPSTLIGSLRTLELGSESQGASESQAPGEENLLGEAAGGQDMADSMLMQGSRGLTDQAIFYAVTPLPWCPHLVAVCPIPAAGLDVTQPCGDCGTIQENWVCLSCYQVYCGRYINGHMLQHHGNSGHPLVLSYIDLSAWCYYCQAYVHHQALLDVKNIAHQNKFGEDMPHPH
pIC50: −log10 of the molar value.
metric.name: pIC50

Inquiry: Look up pIC50 for this compound: Nc1ccccc1NC(=O)CCCCCCC(=O)Nc1ccccc1
Reply text: < 5.00

----------
This section lists IC50 readings for Histone deacetylase 9 (Homo sapiens).

CCCNNC(=O)CCCCCCC(=O)Nc1ccccc1: > 10 µM

Shifting focus to the molecule that follows.
Inquiry: Any idea what IC50 was measured for Nc1ccccc1NC(=O)CCCCCCC(=O)Nc1ccccc1 ?
Reply text: > 10 µM

----------
# study.target: Histone deacetylase 1 (Homo sapiens, UniProt Q13547)
# Sequence (Q13547 whole entry): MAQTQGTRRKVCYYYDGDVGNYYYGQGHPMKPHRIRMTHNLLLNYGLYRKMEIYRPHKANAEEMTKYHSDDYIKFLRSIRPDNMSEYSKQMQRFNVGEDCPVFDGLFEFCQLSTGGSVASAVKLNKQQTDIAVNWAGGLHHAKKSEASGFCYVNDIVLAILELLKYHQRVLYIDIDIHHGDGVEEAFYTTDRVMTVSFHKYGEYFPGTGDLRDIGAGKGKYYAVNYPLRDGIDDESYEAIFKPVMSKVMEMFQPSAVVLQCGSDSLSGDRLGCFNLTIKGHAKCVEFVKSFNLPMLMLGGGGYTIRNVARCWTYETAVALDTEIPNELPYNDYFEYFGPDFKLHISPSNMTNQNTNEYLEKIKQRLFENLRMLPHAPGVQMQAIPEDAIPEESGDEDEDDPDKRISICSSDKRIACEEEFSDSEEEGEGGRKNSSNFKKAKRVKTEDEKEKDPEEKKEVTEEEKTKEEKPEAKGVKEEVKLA
# experimental.protocol: Inhibition of HDAC1 (unknown origin) preincubated for 120 mins
metric.name: pIC50
pIC50 field: float, defined as -log10 of concentration (mol/L).

Inquiry: pIC50 for CCCNNC(=O)CCCCCCC(=O)Nc1ccccc1 ?
Reply text: 7.32

Inquiry: Which pIC50 is reported for this compound? Nc1ccccc1NC(=O)CCCCCCC(=O)Nc1ccccc1
Reply text: 5.97

----------
IC50 values for the molecules below.
# study.target: Histone deacetylase 2 (Homo sapiens)
# Sequence (Q92769 whole entry): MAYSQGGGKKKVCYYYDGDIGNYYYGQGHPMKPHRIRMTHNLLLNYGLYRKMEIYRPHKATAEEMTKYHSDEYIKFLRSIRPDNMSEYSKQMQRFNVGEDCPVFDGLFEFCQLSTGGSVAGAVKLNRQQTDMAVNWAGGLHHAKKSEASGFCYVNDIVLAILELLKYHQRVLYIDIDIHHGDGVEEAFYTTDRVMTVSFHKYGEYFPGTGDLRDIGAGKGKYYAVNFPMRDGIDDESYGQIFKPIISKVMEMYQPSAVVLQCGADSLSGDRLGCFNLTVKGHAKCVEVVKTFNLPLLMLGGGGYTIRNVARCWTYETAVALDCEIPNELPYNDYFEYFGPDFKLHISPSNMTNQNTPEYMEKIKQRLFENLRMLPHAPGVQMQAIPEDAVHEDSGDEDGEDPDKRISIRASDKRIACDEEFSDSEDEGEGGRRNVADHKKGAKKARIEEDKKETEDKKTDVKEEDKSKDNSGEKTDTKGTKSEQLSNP
# experimental.protocol: Inhibition of HDAC2 (unknown origin) preincubated for 5 mins
Form entry: value (nM) — number only.

Nc1ccccc1NC(=O)CCCCCCC(=O)Nc1ccccc1: 1160

Now for another entry.
Inquiry: Histone deacetylase 2 (Homo sapiens) / IC50 / CCCNNC(=O)CCCCCCC(=O)Nc1ccccc1 : value?
Reply text: 406

----------
# study.target: Histone deacetylase 1 (Homo sapiens, UniProt Q13547)
# experimental.protocol: Inhibition of HDAC1 (unknown origin) preincubated for 30 mins
metric.name: IC50
A complete answer gives the number and then names the unit.

CCCNNC(=O)CCCCCCC(=O)Nc1ccccc1: 0.0892 µM

# evaluate next
Inquiry: Entry Nc1ccccc1NC(=O)CCCCCCC(=O)Nc1ccccc1 : reported IC50 = ?
Reply text: 0.91 µM

----------
Listed here are molecules together with their documented IC50.
# study.target: Histone deacetylase 3 (Homo sapiens, UniProt O15379)
# experimental.protocol: Inhibition of HDAC3 (unknown origin)
Only the number, expressed in nM, is required.

CCCNNC(=O)CCCCCCC(=O)Nc1ccccc1: 20.3

# evaluate next
Inquiry: Using the record for Nc1ccccc1NC(=O)CCCCCCC(=O)Nc1ccccc1 , report its IC50.
Reply text: 379

----------
# study.target: Histone deacetylase 3 (Homo sapiens)
# experimental.protocol: Inhibition of HDAC3 (unknown origin) preincubated for 60 mins
// values below are reported IC50
Give the number first and the unit second.

CCCNNC(=O)CCCCCCC(=O)Nc1ccccc1: 22.9 nM

Inquiry: State the recorded IC50 for this entry: Nc1ccccc1NC(=O)CCCCCCC(=O)Nc1ccccc1
Reply text: 535 nM

----------
UniProt:Q9UQL6 measurements of IC50, listed per entry.
Sequence (Q9UQL6 whole entry): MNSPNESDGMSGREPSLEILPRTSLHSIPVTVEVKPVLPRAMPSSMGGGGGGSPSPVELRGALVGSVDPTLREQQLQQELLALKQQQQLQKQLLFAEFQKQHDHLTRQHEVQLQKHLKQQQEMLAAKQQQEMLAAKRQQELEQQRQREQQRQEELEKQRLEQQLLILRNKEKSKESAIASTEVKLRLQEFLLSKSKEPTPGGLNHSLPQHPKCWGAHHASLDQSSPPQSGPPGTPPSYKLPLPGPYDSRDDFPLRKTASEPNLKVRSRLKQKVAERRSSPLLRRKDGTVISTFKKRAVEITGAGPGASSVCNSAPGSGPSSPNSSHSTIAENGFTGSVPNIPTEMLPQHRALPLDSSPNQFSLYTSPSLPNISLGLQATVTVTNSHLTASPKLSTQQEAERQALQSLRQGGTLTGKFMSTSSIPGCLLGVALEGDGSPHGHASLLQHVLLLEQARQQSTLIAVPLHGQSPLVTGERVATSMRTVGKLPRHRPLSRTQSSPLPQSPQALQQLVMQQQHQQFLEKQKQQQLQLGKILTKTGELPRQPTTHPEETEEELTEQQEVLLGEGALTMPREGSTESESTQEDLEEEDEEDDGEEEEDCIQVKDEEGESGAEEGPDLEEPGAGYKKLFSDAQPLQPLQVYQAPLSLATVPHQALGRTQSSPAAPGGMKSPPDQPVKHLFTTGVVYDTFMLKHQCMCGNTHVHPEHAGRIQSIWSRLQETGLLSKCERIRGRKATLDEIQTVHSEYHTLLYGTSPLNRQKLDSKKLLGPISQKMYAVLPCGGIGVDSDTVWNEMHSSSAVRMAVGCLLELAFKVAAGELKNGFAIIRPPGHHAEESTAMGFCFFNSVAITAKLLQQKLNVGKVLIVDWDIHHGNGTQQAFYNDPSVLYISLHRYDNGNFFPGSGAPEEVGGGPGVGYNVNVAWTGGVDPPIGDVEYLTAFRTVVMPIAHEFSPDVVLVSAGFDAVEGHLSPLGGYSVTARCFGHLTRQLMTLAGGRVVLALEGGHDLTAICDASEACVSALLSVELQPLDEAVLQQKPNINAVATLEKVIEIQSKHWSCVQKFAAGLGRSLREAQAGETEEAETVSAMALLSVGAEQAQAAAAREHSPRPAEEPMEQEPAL

CCCNNC(=O)CCCCCCC(=O)Nc1ccccc1: > 10 µM

Now take the following molecule into account.
Inquiry: IC50 of Nc1ccccc1NC(=O)CCCCCCC(=O)Nc1ccccc1 on UniProt:Q9UQL6?
Reply text: > 10 µM

----------
# study.target: UniProtKB O15379
# experimental.protocol: Inhibition of HDAC3 (unknown origin) preincubated for 120 mins
metric.name: pIC50
Convention used: pIC50 is expressed as -log10 of the molar concentration.

Nc1ccccc1NC(=O)CCCCCCC(=O)Nc1ccccc1: 6.33

Inquiry: For CCCNNC(=O)CCCCCCC(=O)Nc1ccccc1 , what is its reported pIC50?
Reply text: 7.75
